- Tested on: K-562 leukemia
- assay_method_text: NCI-60 one-dose screen, 48 h
- run_conditions: 10 µM
The panel holds about 83,000 compounds, 20% with a hit somewhere; the sample as a whole holds those more often. Calls of active or inactive are those of the source. Rule for the calls: active = growth percent below 10; inactive = the rest.
Respond using exactly one of the listed classes: label 1 for active, label 0 for inactive

See these solved cases before continuing.
O=C(CNc1nc(-c2ccccc2)cs1)Nc1ccc([N+](=O)[O-])cc1Cl : label 0
COc1ccc(-c2cc(C(=O)N=Nc3c(O)[nH]c4ccccc34)c3ccccc3n2)cc1 : label 0
Cc1ccc2nc(-c3ccc(-c4nnc(SCC(=O)Nc5ccc(Cl)cc5)o4)cc3)[nH]c2c1 : label 0
COc1ccc(N(C)c2cc(C#N)nc3ccccc23)cc1N : label 0
O=c1oc2ccccc2cc1-c1csc(N=Nc2c(O)[nH]c3ccc(Br)cc23)n1 : label 0

Field: next molecule
Q: Record lookup: outcome of this test for CN1CCN(Cc2ccc(NC(=O)c3cncc(C#Cc4cnc5ccc(N[C@@H]6CCOC6)nn45)c3)cc2C(F)(F)F)CC1 ?
Ans: label 1
